Data origin, for the record: ChEMBL document CHEMBL1201862

Test system: EKVX
Assay: NCI tumour cell line growth inhibition, 48 h
The source made the active and inactive calls. Rule as the data show it: active = GI50 up to about 1.1 µM and inactive = higher.
Item-by-item account of GI50

# count of solved cases: 5
CCOC(=O)C(=[N+]=[N-])C(=O)Nc1nn2nnnc2c2ccccc12; > 100 µM (inactive)
Cc1[nH]n(-c2nc(-c3ccccc3)cc(=O)[nH]2)c(=O)c1CCO; > 100 µM (inactive)
Cc1cccc(C)c1NC(=O)CCC(=O)NC(N)=S; > 100 µM (inactive)
Cc1ccccc1NC(=O)CSc1nnc(-c2ccc(/N=C\c3ccc(Cl)cc3)cc2)o1; > 100 µM (inactive)
Cc1c(-c2ccc(-c3ccccc3F)cc2)nc2ccc(F)cc2c1C(=O)O [BREQUINAR SODIUM]; 16 µM (inactive)

What value of GI50 has been reported for the following compound? Cc1ccc(/N=N/c2ccc(O)c(CN(C)C)c2)cc1C
20.6 µM (inactive)

What value of GI50 has been reported for the following compound? CC(=O)N(C(C)=O)n1c(Cc2ccc(C)cc2)nn(C(C)=O)c1=O
> 100 µM (inactive)

What value of GI50 has been reported for the following compound? O=c1cc(CNC2CCCC2)[nH]c(=O)[nH]1
> 100 µM (inactive)

What value of GI50 has been reported for the following compound? COC(=O)[C@H](C)NC(=O)C1(CNC(=O)[C@H](C)NC(=O)OC(C)(C)C)Cc2ccccc2-c2ccccc2C1
19.3 µM (inactive)

---

Test system: UACC-62
Experiment: NCI tumour cell line growth inhibition, 48 h
Calls of active or inactive are those of the source. Rule as the data show it: active = GI50 up to about 1.1 µM and inactive = higher.
Pick one: active, inactive

CC(C)C(O)(C(=O)OCN1C(=O)C2C3C=CC(C2C1=O)C1C2C(=O)N(COC(=O)C(O)(C(C)C)C(C)O)C(=O)C2C31)C(C)O (centres undefined); inactive
Cc1ccc([N+](=O)[O-])cc1NC(=O)C(=O)Cc1cc(=O)oc2cc(O)ccc12; inactive
O=C1N/C(=N/N=C/C(O)C(O)C(O)CO)N/C1=C\c1ccco1 (centres undefined); inactive
C[N+]1(C)C2Cc3ccccc3C1Cc1ccccc12; inactive
CC(C)(C)OC(=O)N(CCCCNCc1ccc2ccccc2c1)CCCNCc1ccc2ccccc2c1; inactive
O=S(=O)(Nc1nc2ccccc2nc1Nc1ccc2ccccc2c1)c1ccccc1; inactive
CC(C)(C)c1ccc(O)c(CN(Cc2cc(C(C)(C)C)ccc2O)c2ccccc2)c1; inactive
Cc1nc(C(N)=S)sc1C(=O)C/C(=N/N)C(=O)Nc1cccc(Cl)c1C; inactive
CC(=O)Nc1ccc2c3c(cc(O)c2c1)N(C(=O)CCCCCC(=O)N1CC(CCl)c2c1cc(O)c1cc(NC(C)=O)ccc21)CC3CCl (centres undefined); active
C=C1CCc2occ(C)c2C2C1C1=C(CC(C)C1=O)C1OC12C (centres undefined); inactive

Which outcome was assigned to CC[C@](C)(O)C(=O)O[C@H]1C(=O)O[C@@H]2C[C@H]3C(C)=CC(=O)[C@@H](O)[C@]3(C)[C@H]3[C@@]4(O)OC[C@]32[C@@H]1[C@@H](C)[C@H]4O in this test?
active

Which outcome was assigned to O=C1c2ccccc2C(=O)N1CC1S(=O)(=O)OCCOS1(=O)=O in this test?
inactive

Which outcome was assigned to COc1ccc2c(c1)c1c(n2CCN2CCOCC2)-c2ccccc2CC1 in this test?
inactive

Which outcome was assigned to CC1CC2=C(C1)C(C1(C)C(=O)CC3C(C1=O)C3(C)C)C(C)C2=O (centres undefined) in this test?
inactive

Which outcome was assigned to CN1CCN(c2cc3c(cc2F)c(=O)c(C(=O)O)cn3C2CC2)CC1CC#N (centres undefined) in this test?
inactive

Which outcome was assigned to Cc1ccc(Oc2ccccc2N)cc1 in this test?
inactive

Which outcome was assigned to COc1cc(OC)c2c(c1)C(=O)C(CC1(C)OCCCO1)=CC2=O in this test?
inactive

Which outcome was assigned to C=CCC1[C@@H](C(C)(C)C(C(C)=O)C(=O)C(=O)OC)OC(C(C)(C)C)N1C(=O)OC (some centres undefined) in this test?
inactive

Which outcome was assigned to CCOc1c(Cc2ccccc2)c(=O)n2c3ccccc3n3c(=O)n(C)c(=O)c1c23 in this test?
inactive
